Consider the following binders and their measured Mean (FL1-H) readings.
Molecular target: T1, human CD40 (human, UniProt P25942 21-277)
T1 construct: whole, on cells; also called huCD40; CD40 expressed on JY cells
T1 sequence (P25942 21-277): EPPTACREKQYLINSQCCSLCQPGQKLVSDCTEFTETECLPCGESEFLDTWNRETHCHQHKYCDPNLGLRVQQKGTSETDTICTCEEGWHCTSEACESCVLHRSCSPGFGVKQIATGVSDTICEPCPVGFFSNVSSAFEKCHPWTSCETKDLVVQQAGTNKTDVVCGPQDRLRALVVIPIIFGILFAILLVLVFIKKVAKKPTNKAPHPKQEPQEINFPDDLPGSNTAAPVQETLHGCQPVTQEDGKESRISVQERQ
Test: FACS on JY cells expressing CD40; 100 µl PER.C6 transient supernatant harvested after 48 h (antibody concentration not equalised), FITC anti-human IgG 1/100; in the same figure Mock Control Mean 11.25 / Median 8.74, FACS control (secondary only) Mean 10.18 / Median 8.74
Experimental: FIG. 8. FACS analysis using JY cells. PER.C6 cell supernatant of the transient expressed variants (Q5E, K13A, E16Q, T17S, I29L, 37V, P45L, M48L, STS60NSA, T68S, S79F, and T108S) of 5D12 was harvested after 48 h. […] By FACS analysis the antigen specificity of the expressed antibodies was analyzed. […] Finally cell samples were measured on a FACScan (BD).
Just the number in FL1-H, nothing appended.

Complete the entry with Mean (FL1-H) for Q5E variant of deimmunised 5D12 (antibody, human IgG4, V domains shown, VH on a human IgG4 backbone) VH: QVKLEESGPGLVKPSETLSITCTVSGFSISRYSVYWIRQPPGKGPEWMGMMWGGGSTDYSTSLKSRLTISKDTSKSQVSLKMNSLRTDDTAMYYCVRTDGDYWGQGTTVTVSS VL: ELQLTQSPLSLPVTLGQPASISCRSSQSLANSNGNTYLHWYLQRPGQSPRLLIYKVSNRFSGVPDRFSGSGSGTDFTLKISRVEAEDVGVYYCSQSTHVPWTFGGGTKLEIKR
39

Annotate the binder E16Q variant of deimmunised 5D12 (antibody, human IgG4, V domains shown, VH on a human IgG4 backbone) VH: QVKLQESGPGLVKPSQTLSITCTVSGFSISRYSVYWIRQPPGKGPEWMGMMWGGGSTDYSTSLKSRLTISKDTSKSQVSLKMNSLRTDDTAMYYCVRTDGDYWGQGTTVTVSS VL: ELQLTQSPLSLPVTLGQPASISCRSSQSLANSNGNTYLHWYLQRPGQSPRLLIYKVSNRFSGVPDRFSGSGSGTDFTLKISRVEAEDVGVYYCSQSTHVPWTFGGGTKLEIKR with its measured Mean (FL1-H).
39.5

Name the recorded Mean (FL1-H) of the binder listed here: K13A variant of deimmunised 5D12 (antibody, human IgG4, V domains shown, VH on a human IgG4 backbone) VH: QVKLQESGPGLVAPSETLSITCTVSGFSISRYSVYWIRQPPGKGPEWMGMMWGGGSTDYSTSLKSRLTISKDTSKSQVSLKMNSLRTDDTAMYYCVRTDGDYWGQGTTVTVSS VL: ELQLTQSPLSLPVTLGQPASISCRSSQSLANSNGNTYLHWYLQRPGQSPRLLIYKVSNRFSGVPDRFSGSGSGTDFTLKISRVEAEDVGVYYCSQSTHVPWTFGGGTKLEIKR
31.2

Supply measured Mean (FL1-H) of I37V variant of deimmunised 5D12 (antibody, human IgG4, V domains shown, VH on a human IgG4 backbone; also called 137V; 29I-37V) VH: QVKLQESGPGLVKPSETLSITCTVSGFSISRYSVYWVRQPPGKGPEWMGMMWGGGSTDYSTSLKSRLTISKDTSKSQVSLKMNSLRTDDTAMYYCVRTDGDYWGQGTTVTVSS VL: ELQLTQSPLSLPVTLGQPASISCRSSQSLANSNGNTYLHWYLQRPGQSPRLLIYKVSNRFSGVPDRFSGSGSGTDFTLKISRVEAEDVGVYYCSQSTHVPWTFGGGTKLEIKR in your reply.
96
